biological target: T1, Cynomolgus monkey BCMA (cynomolgus monkey); assay: SPR, IgG immobilised, cyno BCMA analyte
T1 construct: Soluble analyte in SPR; also called cyBCMA; Cyno BCMA
observation type: log10 of koff (log10 of the value in s⁻¹)

binder	observation type	endpoint value
C01_Rd4_6nM_C04 (antibody, V domains shown, IgG) VH: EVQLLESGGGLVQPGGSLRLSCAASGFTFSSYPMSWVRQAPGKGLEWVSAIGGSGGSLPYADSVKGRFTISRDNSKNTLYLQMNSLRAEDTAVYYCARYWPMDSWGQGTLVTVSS VL: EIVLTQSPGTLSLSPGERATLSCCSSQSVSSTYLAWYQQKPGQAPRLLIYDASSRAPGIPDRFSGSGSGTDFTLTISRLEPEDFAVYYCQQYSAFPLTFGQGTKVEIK	log10 of koff	-1.49
A02_Rd4_0.6nM_C10 (antibody, V domains shown, IgG) VH: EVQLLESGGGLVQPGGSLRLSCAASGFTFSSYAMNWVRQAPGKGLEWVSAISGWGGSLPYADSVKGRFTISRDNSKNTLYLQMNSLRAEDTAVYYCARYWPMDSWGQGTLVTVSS VL: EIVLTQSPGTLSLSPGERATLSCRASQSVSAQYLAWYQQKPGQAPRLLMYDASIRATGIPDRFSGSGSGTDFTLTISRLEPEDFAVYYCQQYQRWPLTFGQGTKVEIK	log10 of koff	-2.79
A02_Rd4_6nM_C03 (antibody, V domains shown, IgG) VH: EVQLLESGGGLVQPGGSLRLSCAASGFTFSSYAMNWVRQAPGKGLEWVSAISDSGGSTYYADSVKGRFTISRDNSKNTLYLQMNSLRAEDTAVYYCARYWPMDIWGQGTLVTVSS VL: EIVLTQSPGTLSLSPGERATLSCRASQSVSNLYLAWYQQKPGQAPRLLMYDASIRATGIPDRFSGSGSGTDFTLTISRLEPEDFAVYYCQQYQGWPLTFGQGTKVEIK	log10 of koff	-3.73
A02_Rd4_6nM_C04 (antibody, V domains shown, IgG) VH: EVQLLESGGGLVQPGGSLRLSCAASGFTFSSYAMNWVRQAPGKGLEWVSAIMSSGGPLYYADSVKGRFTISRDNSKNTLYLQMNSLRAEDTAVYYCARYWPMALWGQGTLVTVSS VL: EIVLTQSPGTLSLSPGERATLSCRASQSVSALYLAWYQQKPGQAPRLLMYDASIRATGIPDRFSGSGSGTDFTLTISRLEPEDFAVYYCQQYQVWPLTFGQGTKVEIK	log10 of koff	-3.08
A02_Rd4_6nM_C25 (antibody, V domains shown, IgG) VH: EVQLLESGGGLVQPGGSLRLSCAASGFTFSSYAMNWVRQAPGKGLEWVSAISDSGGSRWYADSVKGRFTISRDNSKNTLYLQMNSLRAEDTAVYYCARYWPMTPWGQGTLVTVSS VL: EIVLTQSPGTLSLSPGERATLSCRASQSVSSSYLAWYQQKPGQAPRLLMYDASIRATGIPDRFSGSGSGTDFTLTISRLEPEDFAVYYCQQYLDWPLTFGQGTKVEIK	log10 of koff	-3.48

These measurements were taken from patent US20160297884A1.
